Data origin, for the record: patent US20150232509A1

Tested on: HCV GT1b replicon cells
test_summary: HCV Replicon assay, GT1b replicon cells (Luciferase / NEO qPCR)
Assay type: cell-based
experimental_context: Hepatitis C virus, 72 hours incubation, read-out: EC50 against HCV 1b genotype
measured_parameter: EC50 (nM)
Give the quantity in nM, number only.

Under HCV GT1b replicon cells: EC50 value of COC(=O)N[C@H](C(=O)N1CCC[C@H]1C1=Nc2ccc(-c3cnc(-c4ccc(-c5cnc([C@@H]6CCCN6C(=O)[C@@H](NC(=O)OC)C(C)C)[nH]5)cc4)c4c3CCC43CCCC3)cc2S(=O)(=O)N1)C(C)C [Example 39] ?
0.02

Under HCV GT1b replicon cells: EC50 value of CC(C)[C@H](NC(=O)OC(C)(C)C)C(=O)N1CCC[C@H]1c1ncc(-c2ccc(C3CCC(c4cnc([C@@H]5CCCN5C(=O)[C@@H](NC(=O)OC(C)(C)C)C(C)C)[nH]4)CC3)c3c2CCC32CCCC2)[nH]1 (some centres unmarked) [Example 10] ?
3.46

* * *

System: HCV GT1b replicon cells
test_summary: HCV Replicon assay, GT1b replicon cells (Luciferase / NEO qPCR)
Type: cell-based
experimental_context: Hepatitis C virus, 72 hours incubation, read-out: EC50 against HCV 1b genotype
Please go through the items and note down their EC50.
Give the quantity in nM, number only.

Return reported EC50; argument: COC(=O)N[C@H](C(=O)N1CCC[C@H]1c1nc(-c2ccc(-c3ccc(-c4ccc5nc([C@@H]6CCCN6C(=O)[C@@H](NC(=O)OC)C(C)C)[nH]c5c4)c4c3CCC43CCCC3)c3c2CCC3)c[nH]1)C(C)C
0.089

Return reported EC50; argument: COC(=O)N[C@H](C(=O)N1C[C@@H](C)C[C@H]1c1nc(-c2ccc(-c3ccc(-c4ccc(-c5c[nH]c([C@@H]6C[C@H](C)CN6C(=O)[C@@H](NC(=O)OC)C(C)C)n5)cc4)c4c3CCC43CCCC3)cc2)c[nH]1)C(C)C
0.98

Return reported EC50; argument: COC(=O)N[C@H](C(=O)N1CCC[C@H]1c1ncc(C#Cc2ccc(-c3ccc(-c4cnc([C@@H]5CCCN5C(=O)[C@@H](NC(=O)OC)C(C)C)[nH]4)cc3)c3c2CCC32CCCC2)[nH]1)C(C)C
0.032

Return reported EC50; argument: COC(=O)N[C@H](C(=O)N1CCCC[C@H]1c1ncc(-c2ccc(-c3ccc(-c4cnc([C@@H]5CCCCN5C(=O)[C@@H](NC(=O)OC)C(C)C)[nH]4)c4c3C3(CCCC3)CC4)cc2)[nH]1)C(C)C
0.088

Return reported EC50; argument: COC(=O)N[C@H](C(=O)N1CCC[C@H]1c1nc2ccc(-c3ccc(-c4ccc5nc([C@@H]6CCCN6C(=O)[C@@H](NC(=O)OC)C(C)C)[nH]c5c4)c4c3CCC43CCC3)cc2[nH]1)C(C)C
0.017

Return reported EC50; argument: CNC(=O)N[C@H](C(=O)N1C2CC2C[C@H]1c1nc2ccc(-c3ccc(-c4ccc(-c5cnc([C@@H]6CCCN6C(=O)[C@@H](NC(=O)OC)C(C)C)[nH]5)cc4)c4c3C3(CCCC3)CC4)cc2[nH]1)C(C)C (some centres unmarked)
0.096

Return reported EC50; argument: COC(=O)N[C@H](C(=O)N1CCC[C@H]1c1ncc(-c2ccc(-c3ccc(-c4cnc([C@@H]5CCCN5C(=O)[C@@H](NC(=O)OC)C5CCCCC5)[nH]4)c4c3C3(CCCC3)CC4)cc2)[nH]1)C1CCCCC1
0.029

Return reported EC50; argument: COC(=O)N[C@H](C(=O)N1CCC[C@H]1c1ncc(-c2ccc(-c3sc(-c4cnc([C@@H]5CCCN5C(=O)[C@@H](NC(=O)OC)C(C)C)[nH]4)c4c3C3(CCCC3)CC4)cc2)[nH]1)C(C)C
0.687

* * *

Test system: HCV GT1b replicon cells
test_summary: HCV Replicon assay, GT1b replicon cells (Luciferase / NEO qPCR)
Type: cell-based
experimental_context: Hepatitis C virus, 72 hours incubation, read-out: EC50 against HCV 1b genotype
Group membership follows EC50 per the scheme low value = under 0.03 nM, medium value = from 0.03 nM up to 0.1 nM, high value = 0.1 nM and over

The entry to classify is COC(=O)N[C@@H](C)C(=O)N1CCCC[C@H]1c1ncc(-c2ccc(-c3ccc(-c4cnc([C@@H]5CCCCN5C(=O)[C@H](C)NC(=O)OC)[nH]4)c4c3C3(CCCC3)CC4)cc2)[nH]1 ; which class holds it?
high value

The entry to classify is COC(=O)N[C@H](C(=O)N1CC(C)=C[C@H]1c1ncc(-c2ccc(-c3ccc(-c4cnc([C@@H]5C=C(C)CN5C(=O)[C@@H](NC(=O)OC)C(C)C)[nH]4)c4c3C3(CCCC3)CC4)cc2)[nH]1)C(C)C ; which class holds it?
medium value

The entry to classify is COC(=O)N[C@H](C(=O)N1CC(F)(F)C[C@H]1c1nc(-c2ccc(-c3ccc(-c4cnc([C@@H]5CC(F)(F)CN5C(=O)[C@@H](NC(=O)OC)C(C)C)[nH]4)c4c3C3(CCOCC3)CC4)cc2)c[nH]1)C(C)C ; which class holds it?
high value

The entry to classify is COC(=O)N[C@H](C(=O)N1CCC[C@H]1c1nc2cc(-c3ccc(-c4ccc5[nH]c([C@@H]6CCCN6C(=O)[C@@H](NC(=O)OC)C(C)C)nc5c4)c4c3CCC43CCCC3)ccc2[nH]1)C(C)C ; which class holds it?
medium value

The entry to classify is CC(C)[C@H](NC(=O)N1CCOCC1)C(=O)N1CCC[C@H]1c1ncc(-c2ccc(N3CCC(c4cnc([C@@H]5CCCN5C(=O)[C@@H](NC(=O)N5CCOCC5)C(C)C)[nH]4)CC3)c3c2CCC32CCCC2)[nH]1 ; which class holds it?
high value

The entry to classify is COC(=O)N[C@H](C(=O)N1CCC[C@H]1c1nc(-c2ccc(-c3ccc(-c4c[nH]c([C@@H]5CCCN5C(=O)[C@@H](NC(=O)OC)C(C)C)n4)c4c3C3(CCCC3)CC4)cc2)c[nH]1)C(C)C ; which class holds it?
low value

The entry to classify is COC(=O)N[C@H](C(=O)N1CCC[C@H]1c1ncc(-c2ccc(-c3ccc(-c4ccc5nc([C@@H]6CCCN6C(=O)[C@@H](NC(=O)OC)C(C)C)[nH]c(=O)c5c4)c4c3C3(CCCC3)CC4)cc2)[nH]1)C(C)C ; which class holds it?
low value

The entry to classify is COC(=O)N[C@H](C(=O)N1CCC[C@H]1c1ncc(-c2ccc(-c3ccc(-c4ccc5nc([C@@H]6CCCN6C(=O)[C@@H](NC(=O)OC)C(C)C)[nH]c5c4)cc3)c3c2CCC32CCCC2)[nH]1)C(C)C ; which class holds it?
high value

The entry to classify is COC(=O)N[C@H](C(=O)N1CCC[C@H]1c1ncc(-c2ccc(-c3ccc(-c4cnc([C@@H]5CCCN5C(=O)[C@@H](NC(=O)OC)C(C)C)[nH]4)c4c3CCC43CCCC3)cc2)[nH]1)C(C)C ; which class holds it?
medium value

The entry to classify is COC(=O)N[C@H](C(=O)N1C2CCC(C2)[C@H]1c1ncc(-c2ccc(-c3ccc(-c4cnc([C@@H]5C6CCC(C6)N5C(=O)[C@@H](NC(=O)OC)C(C)C)[nH]4)c4c3C3(CCCC3)CC4)cc2)[nH]1)C(C)C (stereo partly drawn) ; which class holds it?
medium value

The entry to classify is COC(=O)N[C@H](C(=O)N1C[C@@H](F)C[C@H]1c1ncc(-c2ccc(-c3ccc(-c4cnc([C@@H]5C[C@H](F)CN5C(=O)[C@@H](NC(=O)OC)C(C)C)[nH]4)c4c3C3(CCCC3)CC4)cc2)[nH]1)C(C)C ; which class holds it?
medium value

The entry to classify is COC(=O)N[C@H](C(=O)N1C[C@@H](C)C[C@H]1c1ncc(-c2ccc(-c3ccc(-c4cnc([C@@H]5C[C@H](C)CN5C(=O)[C@@H](NC(=O)OC)C(C)C)[nH]4)c4c3C3(CCCC3)CC4)cc2)[nH]1)C(C)C ; which class holds it?
low value

The entry to classify is COC(=O)N[C@H](C(=O)N1CCC[C@H]1c1ncc(-c2ccc(-c3ccc(-c4cnc([C@@H]5CCCN5C(=O)[C@@H](NC(=O)OC)c5ccccc5)[nH]4)c4c3C3(CC4)CCN(C)CC3)cc2)[nH]1)c1ccccc1 ; which class holds it?
high value

The entry to classify is COC(=O)N[C@H](C(=O)N1CCC[C@H]1c1ncc(-c2ccc(-c3ccc(-c4cnc([C@@H]5CCCN5C(=O)[C@@H](NC(=O)OC)C(C)C)[nH]4)c4c3C3(CCOC3)CC4)cc2)[nH]1)C(C)C (stereo partly drawn) ; which class holds it?
medium value

The entry to classify is COC(=O)N[C@H](C(=O)N1C2CC2C[C@H]1c1ncc(-c2ccc(-c3ccc(-c4ccc(-c5cnc([C@@H]6CC7CC7N6C(=O)[C@@H](NC(=O)OC)C(C)C)[nH]5)cc4)c4c3CCC43CCCC3)cc2)[nH]1)C(C)C (stereo partly drawn) ; which class holds it?
low value

The entry to classify is COC(=O)N[C@H](C(=O)N1CCC[C@H]1c1ncc(-c2ccc(-c3ccc(-c4cnc([C@@H]5CCCN5C(=O)[C@@H](NC(=O)OC)C(C)C)[nH]4)c4c3C3(CC4)CCC(C)CC3)s2)[nH]1)C(C)C (stereo partly drawn) ; which class holds it?
high value

The entry to classify is COC(=O)NC(C(=O)N1CCCC1c1nc2cc(-c3ccc(-c4ccc5[nH]c(C6CCCN6C(=O)C(NC(=O)OC)C(C)C)nc5c4)c4c3CCC43CCCC3)ccc2[nH]1)C(C)C (stereo not drawn) ; which class holds it?
medium value

The entry to classify is CCC(C)[C@H](NC(=O)OC)C(=O)N1CCC[C@H]1c1nc2ccc(-c3ccc(-c4ccc(-c5cnc([C@@H]6CCCN6C(=O)[C@@H](NC(=O)OC)C(C)C)[nH]5)cc4)c4c3CCC43CCCC3)cc2[nH]1 (stereo partly drawn) ; which class holds it?
medium value
